Each item that follows carries a reported MIC of antibiotic.
system: Stenotrophomonas malthophilia 1AC736; test: MIC by broth microdilution (NCCLS M7-A5); conditions: Stenotrophomonas maltophilia 1AC736; antibiotic alone

| COMPOUND | MIC of antibiotic / µg/mL |
| --- | --- |
| NC(=O)OCC1C(NC(=O)C(=NOCc2cc(=O)c(O)cn2O)c2csc(N)n2)C(=O)N1OCC(=O)O (stereo not shown) | 1 |
| Nc1nc(C(=NOCc2cc(=O)c(O)cn2O)C(=O)NC2CN(S(=O)(=O)O)C2=O)cs1 (stereo not shown) | 0.5 |
| NC(=O)OCC1C(NC(=O)C(=NOCc2cc(=O)c(O)cn2O)c2nc(N)sc2Cl)C(=O)N1OS(=O)(=O)O (stereo not shown) | 1 |
| NC(=O)OCC1C(NC(=O)C(=NOCc2cc(=O)c(O)cn2O)c2csc(N)n2)C(=O)N1OS(=O)(=O)O (stereo not shown) | 4 |
